Measured GI50 of individual entries
- Test system: KM12
- method-notes: NCI tumour cell line growth inhibition, 48 h
Active and inactive are the calls of the source. Rule as the data show it: active = GI50 up to about 1.1 µM and inactive = higher.

Below, 4 molecules whose answers are already recorded.
| molecule | reported-result |
| --- | --- |
| COc1ccc2c(O)c3[n+](cc2c1OC)CCc1cc2c(cc1-3)OCO2 | 66.1 µM (inactive) |
| O=C(CC1(O)C(=O)Nc2ccc(Br)cc21)c1ccc(Cl)cc1Cl (stereo not given) | 52.6 µM (inactive) |
| COc1ccc2cc3nc(O)cc(O)c3cc2c1OC | > 100 µM (inactive) |
| C[C@]12C(=O)OC[C@H](c3ccccc3)N1C(=O)N(Cc1ccccc1)[C@@H]2CO | > 100 µM (inactive) |

Now let's try a different one.
Inquiry: Record C/C(=N\NC(=S)NCCCCNC(=S)N/N=C(\C)c1ccccn1)c1ccccc1 : what is its GI50 with KM12?
Reply text: 1.77 µM (inactive)

* * *

- Test system: RPMI-8226
- method-notes: NCI tumour cell line growth inhibition, 48 h
Calls of active or inactive are those of the source. No stated cut-off is given here; in the data, active = GI50 up to about 1.1 µM and inactive = higher. Residues, ends and D or L forms follow the SMILES beside them. Groups on a side chain read outwards from the residue. *: point of attachment. Cbz = O=C(OCc1ccccc1)*; Boc = CC(C)(C)OC(=O)*
assay-endpoint: GI50

Below, 3 compounds whose answers are already recorded.
| compound | GI50 |
| --- | --- |
| COc1ccc2c(c1)CC[C@@H]1C2CC[C@]2(C)C(=N\O)/C(=N/O)CC12 (some centres undefined) | 9.31 µM (inactive) |
| CC(C)(C)OC(=O)NC(CCCCNC(=O)CNC(=O)OCc1ccccc1)C(=O)NC(CCCCNC(=O)CNC(=O)OCc1ccccc1)C(=O)NC(CCCCNC(=O)CNC(=O)OCc1ccccc1)C(=O)NC(CCCCNC(=O)CNC(=O)OCc1ccccc1)C(=O)O (centres undefined) (Boc-K([Gly-Cbz])K([Gly-Cbz])K([Gly-Cbz])K([Gly-Cbz])-OH; configuration not given here) | > 100 µM (inactive) |
| c1ccc2c(c1)c1c(n2CCOCCN2CCOCC2)CCCC1 | 21 µM (inactive) |

Now let's try a different one.
Inquiry: What value of GI50 has been recorded for this entry: CCNC(=S)NNC(=O)c1nsc2ccccc12
Reply text: 51.8 µM (inactive)

* * *

- System: A549
- method-notes: NCI tumour cell line growth inhibition, 48 h
Calls of active or inactive are those of the source. Rule as the data show it: active = GI50 up to about 1.1 µM and inactive = higher.
Measured GI50 of individual entries

| compound | reported-result |
| --- | --- |
| CC(C)(C)OC(=O)N[C@H]1CC2(C=C(Cl)C(=O)C(Cl)=C2)OC1=O | 38.3 µM (inactive) |
| COc1ncnc2c1cnn2Cc1cn(COCC(O)CO)nn1 (stereo not given) | > 100 µM (inactive) |
| COC(=O)c1cccc(COc2ccc([N+](=O)[O-])cc2Cl)c1 | 42.5 µM (inactive) |
| Nc1ccc(C(=O)/C=C/c2ccccc2O)cc1 | > 100 µM (inactive) |

Inquiry: What value of GI50 has been recorded for this entry: CN(C)c1ccc(/C=C/C(=O)CC(=O)/C=C/c2ccc(N(C)C)cc2)cc1
Reply text: > 100 µM (inactive)

Inquiry: Again, but for Cc1c(C)c(C)c(-n2c(=O)n(C)c(=O)n2-n2c(=O)n(C)c(=O)n2-c2c(C)c(C)c(C)c(C)c2C)c(C)c1C
Reply text: > 100 µM (inactive)

Inquiry: Again, but for Cc1ccc(S(=O)(=O)NCCSS(=O)(=O)c2ccc(C)cc2)cc1
Reply text: 25.9 µM (inactive)

Inquiry: Again, but for CC(=O)Nc1ccc2c(c1)[nH]c(=O)c1cc(Cl)ccc12
Reply text: 5.61 µM (inactive)

Inquiry: Again, but for O=S(=O)(O)c1cc(/N=N/c2cc(S(=O)(=O)O)c3ccccc3c2O)ccc1/C=C/c1ccc(/N=N/c2cc(S(=O)(=O)O)c3ccccc3c2O)cc1S(=O)(=O)O
Reply text: > 480 µM (inactive)

Inquiry: Again, but for Cc1c(N2C(=O)/C(=C/c3ccc(N(CCC#N)CCC#N)cc3)N=C2c2ccccc2)c(=O)n(-c2ccccc2)n1C
Reply text: > 100 µM (inactive)

Inquiry: Again, but for CCOP(=O)(/C=C/n1cnc2c(=O)n(C(C)=O)c(N)nc21)OCC
Reply text: > 100 µM (inactive)

Inquiry: Again, but for OC(COc1cccc2ccccc12)CN1CCOCC1 (stereo not given)
Reply text: > 100 µM (inactive)

Inquiry: Again, but for CC1(C)C(=S)C(C)(C)C1=S
Reply text: > 100 µM (inactive)

* * *

Measured GI50 of individual entries
- System: HT-29
- method-notes: NCI tumour cell line growth inhibition, 48 h
Active and inactive are the calls of the source. Cut-off read from the data, not from the text of the source: active = GI50 up to about 1.1 µM and inactive = higher.

Below, 2 molecules whose answers are already recorded.
| molecule | assay-endpoint | reported-result |
| --- | --- | --- |
| COC1(OC)c2no[n+]([O-])c2CCC1O (stereo unspecified) | GI50 | > 100 µM (inactive) |
| COc1ncnc2c1cnn2Cc1cn(COCC(O)CO)nn1 (stereo unspecified) | GI50 | > 100 µM (inactive) |

Inquiry: What value of GI50 has been recorded for this entry: N#C/C(=C\c1cn(Cc2ccccc2)c2ccccc12)c1nn(-c2ccccc2)c(N)c1C#N
Reply text: 11.3 µM (inactive)

Inquiry: Again, but for Cc1cc(O)nc(NNC(C#N)c2ccc(N(C)C)cc2)n1 (stereo unspecified)
Reply text: > 100 µM (inactive)

Inquiry: Again, but for COc1cccc(-c2cc(O)c3cc(N4CCN(C)CC4)ccc3n2)c1
Reply text: 2.24 µM (inactive)

Inquiry: Again, but for Cc1cccc(Nc2cnc(N)nc2N)c1
Reply text: > 100 µM (inactive)

* * *

- Test system: HOP-62
- method-notes: NCI tumour cell line growth inhibition, 48 h
Calls of active or inactive are those of the source. Cut-off read from the data, not from the text of the source: active = GI50 up to about 1.1 µM and inactive = higher.
Measured GI50 of individual entries

Below, 4 compounds whose answers are already recorded.
| compound | GI50 |
| --- | --- |
| CCOC(=O)N1c2ccccc2N(C(=O)OCC)C1CC(=O)/C=C/c1ccccc1 | 3.99 µM (inactive) |
| CN(/C(=N\O)c1ccccc1)c1ccccc1 | 22.9 µM (inactive) |
| O=C1NC(=O)C(C(CC(=O)c2ccc([N+](=O)[O-])cc2)c2ccccc2)C(=O)N1 (configuration not stated) | > 100 µM (inactive) |
| O=CNNC(=O)Nc1cccc2ccccc12 | > 100 µM (inactive) |

Inquiry: What value of GI50 has been recorded for this entry: Cc1cc(O)ccc1C1(c2ccc(F)cc2)OC(=O)c2ccccc21 (configuration not stated)
Reply text: 5.65 µM (inactive)

Inquiry: Again, but for CS(=O)(=O)NNS(=O)(=O)c1ccccc1
Reply text: > 100 µM (inactive)

Inquiry: Again, but for Cc1cccc(C)c1NC(=O)CCCC(=O)C1CC(=O)CCC1=O (configuration not stated)
Reply text: > 100 µM (inactive)

Inquiry: Again, but for Cc1nc2c(=S)n(C)ncc2[nH]1
Reply text: > 100 µM (inactive)

Inquiry: Again, but for COc1ccc(CN2CC(C)(C)C2=O)c(OC)c1
Reply text: > 100 µM (inactive)

* * *

Measured GI50 of individual entries
- Tested on: KM-20L2
- method-notes: NCI tumour cell line growth inhibition, 48 h
The source made the active and inactive calls. Cut-off read from the data, not from the text of the source: active = GI50 up to about 1.1 µM and inactive = higher.

Below, 5 compounds whose answers are already recorded.
| compound | assayed-target | GI50 |
| --- | --- | --- |
| O=C1c2ccccc2C(=O)N1C/C=N/NS(=O)(=O)c1ccc(Cl)cc1 | KM-20L2 | > 100 µM (inactive) |
| N#Cc1cccc(NC(=O)c2ccc(C(=O)O)c(C(=O)c3ccc(C(=O)O)c(C(=O)Nc4cccc(C#N)c4)c3)c2)c1 | KM-20L2 | > 100 µM (inactive) |
| [N-]=[N+]=NCC(O)Cn1cnc2c(NC(=O)c3ccccc3)ncnc21 (stereo not given) | KM-20L2 | > 100 µM (inactive) |
| CN(C)CCOc1cc2c(c3ccccc13)-c1ccccc1C2O (stereo not given) | KM-20L2 | 15.6 µM (inactive) |
| Cc1cccc(C)c1NC(=O)CCCC(=O)C1CC(=O)CCC1=O (stereo not given) | KM-20L2 | > 100 µM (inactive) |

Inquiry: What value of GI50 has been recorded for this entry: COc1ccc2cc3n(c2c1)CCc1cc(OC)c(OC)cc1-3
Reply text: > 100 µM (inactive)

* * *

- Test system: U-251
- method-notes: NCI tumour cell line growth inhibition, 48 h
Activity calls are given as the source filed them. Cut-off read from the data, not from the text of the source: active = GI50 up to about 1.1 µM and inactive = higher.
Measured GI50 of individual entries

Below, 5 compounds whose answers are already recorded.
| compound | GI50 |
| --- | --- |
| C/C(=N\NC(=S)NCCCCNC(=S)N/N=C(\C)c1ccccn1)c1ccccc1 | 0.962 µM (active) |
| COC(=O)N/N=C(\C)C(CN1CCOCC1)C(c1ccccc1)c1cc2ccccc2oc1=O (stereo not given) | > 100 µM (inactive) |
| COc1ccc2c(c1)CC[C@@H]1C2CC[C@]2(C)C(=N\O)/C(=N/O)CC12 (stereo not given in full) | 15.4 µM (inactive) |
| CN(C)CC[N+]1=Nc2cccc3cccc(c23)N1 | > 68.5 µM (inactive) |
| S=C(/N=c1\sc(NCc2ccccc2)nc2sc3c(c12)CCN(N1CCc2c(sc4nc(NCc5ccccc5)s/c(=N\C(=S)NCc5ccccc5)c24)C1)C3)NCc1ccccc1 | 10.5 µM (inactive) |

Inquiry: What value of GI50 has been recorded for this entry: Cc1nc2ccc(F)cc2c(Cl)c1CCCl
Reply text: 30.4 µM (inactive)

Inquiry: Again, but for c1ccc2c(OCCSCCCCCCCCCCSCCOc3cccc4ccccc34)cccc2c1
Reply text: > 100 µM (inactive)

Inquiry: Again, but for COc1cc(/C=N/N=C(\N)NO)cc(Cl)c1O
Reply text: 48.9 µM (inactive)

Inquiry: Again, but for Oc1ccc(Cl)cc1C1=NC(/N=C\c2ccccc2)=NC(c2ccccc2)C1 (stereo not given)
Reply text: 30.1 µM (inactive)

Inquiry: Again, but for Cn1c(=S)c2nc(SCc3cccnc3)[nH]c2n(C)c1=O
Reply text: > 100 µM (inactive)
